FYI, the data here is from paper PMC11079024.

Examples of compounds with documented activity at 75 µM follow.
# STUDY_TARGET: B. taurus (heart) complex I (Bos taurus, UniProt P03887+P17694+P42026)
# Sequence (P03887 whole entry): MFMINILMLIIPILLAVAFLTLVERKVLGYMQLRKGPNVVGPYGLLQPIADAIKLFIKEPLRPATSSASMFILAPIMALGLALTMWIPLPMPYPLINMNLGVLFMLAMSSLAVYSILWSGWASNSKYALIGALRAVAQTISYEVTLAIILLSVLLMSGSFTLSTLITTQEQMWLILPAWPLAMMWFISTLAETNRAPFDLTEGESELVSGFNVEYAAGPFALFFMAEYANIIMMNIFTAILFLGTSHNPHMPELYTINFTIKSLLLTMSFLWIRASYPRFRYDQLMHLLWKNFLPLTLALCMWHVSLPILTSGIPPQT
# Sequence (P17694 34-463): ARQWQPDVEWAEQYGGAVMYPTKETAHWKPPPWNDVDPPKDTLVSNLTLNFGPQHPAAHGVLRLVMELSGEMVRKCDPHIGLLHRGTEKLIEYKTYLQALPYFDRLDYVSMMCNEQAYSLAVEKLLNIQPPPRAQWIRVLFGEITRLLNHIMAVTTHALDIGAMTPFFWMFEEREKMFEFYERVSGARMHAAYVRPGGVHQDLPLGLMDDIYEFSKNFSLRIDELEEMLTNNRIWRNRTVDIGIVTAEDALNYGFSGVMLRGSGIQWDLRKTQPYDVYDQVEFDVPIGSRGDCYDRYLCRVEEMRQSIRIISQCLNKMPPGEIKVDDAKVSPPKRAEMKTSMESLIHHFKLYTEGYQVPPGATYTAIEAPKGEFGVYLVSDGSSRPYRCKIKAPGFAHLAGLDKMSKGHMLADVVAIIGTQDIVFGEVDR
# Sequence (P42026 38-216): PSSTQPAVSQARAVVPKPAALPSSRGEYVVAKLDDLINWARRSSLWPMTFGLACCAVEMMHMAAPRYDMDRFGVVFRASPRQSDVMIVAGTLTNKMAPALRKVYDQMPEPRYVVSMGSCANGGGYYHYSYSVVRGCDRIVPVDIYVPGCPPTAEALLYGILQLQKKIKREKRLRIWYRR
# PROTOCOL: biochemical
# Format: biochemical
# CONDITIONS_USED: Dose 75 µM; read-out: B. taurus mitochondrial complex I activity

COMPOUND	VALUE_UNITS	activity at 75 µM
Cc1nc2ccccc2n1Cc1ccc(Cl)c(Cl)c1 [Compound 5655567]	%	0.62
Cc1ccc(C(C)C)c(OCC(O)Cn2cnc3ccccc32)c1 (centres unmarked) [Compound 6093301]	%	11.2
Nc1nc2ccccc2n1CCOc1ccc(Br)cc1 [Compound 5842535]	%	1.7
FC(F)(F)c1cccc(OCCCCn2cnc3ccccc32)c1 [Compound 7925004]	%	1.95
Clc1ccc(SCCCCn2cnc3ccccc32)cc1 [Compound 7925515]	%	2.46
Clc1ccccc1OCCCCn1cnc2ccccc21 [Compound 7925804]	%	2.37
CCc1cc(OCCn2cnc3ccccc32)ccc1Cl [Compound 7925288]	%	1.27
Cc1ccccc1OCCCn1c(C)nc2ccccc21 [Compound 7916923]	%	2.1
